System: corneal neovascularization in BALB/c mice
Test: Alkali-burn corneal neovascularization in BALB/c mice (CD31 microvessel density)
Type: in vivo, mouse
Conditions: microvessel density (CD31) of cornea, day 14 after alkali burn; intravitreal once a day for 1 week
Marks after values point to notes of the source that are not given here. Where no end group is shown, it is not given here.
value.type: MVD

// map mPEG-SC20k-Arg-Gly-Ala-Asp-Arg-Ala-Gly-Gly-Gly-Gly-Arg-Gly-Asp ({mPEG‑SC 20 kDa}-RGADRAGGGGRGD) [mPEG-SC20k-HM-1] to recorded MVD (system: corneal neovascularization in BALB/c mice)
35.68 ± 4.842**

Query for corneal neovascularization in BALB/c mice: what MVD does the record show for mPEG-ALD10k-Arg-Gly-Ala-Asp-Arg-Ala-Gly-Gly-Gly-Gly-Arg-Gly-Asp ({mPEG‑ALD 10 kDa}-RGADRAGGGGRGD) [mPEG-ALD10k-HM-1] ?
30.81 ± 5.465**

What is its MVD for corneal neovascularization in BALB/c mice? Entry: mPEG-bALD40k-Arg-Gly-Ala-Asp-Arg-Ala-Gly-Gly-Gly-Gly-Arg-Gly-Asp ({mPEG‑bALD 40 kDa}-RGADRAGGGGRGD) [mPEG-bALD40k-HM-1]
36.52 ± 6.537**

# returns recorded MVD (system: corneal neovascularization in BALB/c mice) for mPEG-SC40k-Arg-Gly-Ala-Asp-Arg-Ala-Gly-Gly-Gly-Gly-Arg-Gly-Asp ({mPEG‑SC 40 kDa}-RGADRAGGGGRGD) [mPEG-SC40k-HM-1]
37.72 ± 4.153**

Give MVD (corneal neovascularization in BALB/c mice) of the following substance: mPEG2-NHS10k-Arg-Gly-Ala-Asp-Arg-Ala-Gly-Gly-Gly-Gly-Arg-Gly-Asp ({mPEG2‑NHS 10 kDa}-RGADRAGGGGRGD) [mPEG2-NHS10k-HM-1]
33.32 ± 3.871**

----------
Test system: human retinal vascular endothelial cells (HRCEC)
Test: MTT proliferation of human retinal vascular endothelial cells
Type: cell-based
Conditions: 80 μg/mL; HRCEC proliferation, 48 h
Where no end group is shown, it is not given here.
value.type: Inhibition rate (%*)
# unit: %* | format: bare number

GET /values?readout=Inhibition rate&item= mPEG-bALD40k-Arg-Gly-Ala-Asp-Arg-Ala-Gly-Gly-Gly-Gly-Arg-Gly-Asp ({mPEG‑bALD 40 kDa}-RGADRAGGGGRGD) [mPEG-bALD40k-HM-1]
44.81

Find the recorded Inhibition rate belonging to mPEG-ALD10k-Arg-Gly-Ala-Asp-Arg-Ala-Gly-Gly-Gly-Gly-Arg-Gly-Asp ({mPEG‑ALD 10 kDa}-RGADRAGGGGRGD) [mPEG-ALD10k-HM-1] and report it.
73.89

Bench note: what Inhibition rate did mPEG-bALD10k-Arg-Gly-Ala-Asp-Arg-Ala-Gly-Gly-Gly-Gly-Arg-Gly-Asp ({mPEG‑bALD 10 kDa}-RGADRAGGGGRGD) [mPEG-bALD10k-HM-1] show?
75.19

----------
Could you please report measured inhibition rate of HUVEC migration for the items listed next?
Tested on: Human Umbilical Vein Endothelial Cells (HUVEC)
Test: Transwell migration of HUVEC
Format: cell-based
Conditions: 90 μg/mL, 24 h
Where no end group is shown, it is not given here.
State the answer as a number, implicitly in %*.

Need inhibition rate of HUVEC migration of mPEG-bALD40k-Arg-Gly-Ala-Asp-Arg-Ala-Gly-Gly-Gly-Gly-Arg-Gly-Asp ({mPEG‑bALD 40 kDa}-RGADRAGGGGRGD) [mPEG-bALD40k-HM-1] , thanks.
40.30

Fill blank: measured inhibition rate of HUVEC migration of the substance mPEG-ALD40k-Arg-Gly-Ala-Asp-Arg-Ala-Gly-Gly-Gly-Gly-Arg-Gly-Asp ({mPEG‑ALD 40 kDa}-RGADRAGGGGRGD) [mPEG-ALD40k-HM-1] is ____.
48.07

What measured inhibition rate of HUVEC migration goes with mPEG2-NHS40k-Arg-Gly-Ala-Asp-Arg-Ala-Gly-Gly-Gly-Gly-Arg-Gly-Asp ({mPEG2‑NHS 40 kDa}-RGADRAGGGGRGD) [mPEG2-NHS40k-HM-1] ?
38.26

Entry mPEG-SC40k-Arg-Gly-Ala-Asp-Arg-Ala-Gly-Gly-Gly-Gly-Arg-Gly-Asp ({mPEG‑SC 40 kDa}-RGADRAGGGGRGD) [mPEG-SC40k-HM-1] has what inhibition rate of HUVEC migration?
40.36

----------
Test system: Bladder Cancer tumor cells
Test: MTT proliferation inhibition, bladder cancer cells
Type: cell-based, human
Design: concentration or dose not given beside the values
Conditions: 48 h
Method: The activity of mPEG-HM-1 to inhibit the growth of various tumor cells was examined by MTT assay. The tumor cells were cultured to a concentration of 90% or more in a 37° C., 5% CO2 incubator and collected by trypsinization. […] The absorbance was measured at a measurement wavelength of 570 nm and a reference wavelength of 630 nm using a microplate reader, and the rate of growth inhibition (proliferation inhibition, PI) was calculated. […]
Where no end group is shown, it is not given here.
For each record, write down the corresponding rate of growth inhibition.
Provide the reading as a plain figure in %.

Need rate of growth inhibition of mPEG2-NHS20k-Arg-Gly-Ala-Asp-Arg-Ala-Gly-Gly-Gly-Gly-Arg-Gly-Asp ({mPEG2‑NHS 20 kDa}-RGADRAGGGGRGD) [mPEG2-NHS20k-HM-1] , thanks.
49.79

Given the entry mPEG-SC10k-Arg-Gly-Ala-Asp-Arg-Ala-Gly-Gly-Gly-Gly-Arg-Gly-Asp ({mPEG‑SC 10 kDa}-RGADRAGGGGRGD) [mPEG-SC10k-HM-1] , report its measured rate of growth inhibition.
42.76

Would you mind telling me what rate of growth inhibition value was observed for mPEG-bALD5k-Arg-Gly-Ala-Asp-Arg-Ala-Gly-Gly-Gly-Gly-Arg-Gly-Asp ({mPEG‑bALD 5 kDa}-RGADRAGGGGRGD) [mPEG-bALD5k-HM-1] ?
36.03

I am curious: what rate of growth inhibition value has been reported for mPEG-bALD10k-Arg-Gly-Ala-Asp-Arg-Ala-Gly-Gly-Gly-Gly-Arg-Gly-Asp ({mPEG‑bALD 10 kDa}-RGADRAGGGGRGD) [mPEG-bALD10k-HM-1] ?
49.61

Consider the substance mPEG2-NHS40k-Arg-Gly-Ala-Asp-Arg-Ala-Gly-Gly-Gly-Gly-Arg-Gly-Asp ({mPEG2‑NHS 40 kDa}-RGADRAGGGGRGD) [mPEG2-NHS40k-HM-1] and give its measured rate of growth inhibition.
45.60

What value of measured rate of growth inhibition is listed for mPEG-SC5k-Arg-Gly-Ala-Asp-Arg-Ala-Gly-Gly-Gly-Gly-Arg-Gly-Asp ({mPEG‑SC 5 kDa}-RGADRAGGGGRGD) [mPEG-SC5k-HM-1] ?
35.72

Endpoint output: rate of growth inhibition of mPEG2-NHS5k-Arg-Gly-Ala-Asp-Arg-Ala-Gly-Gly-Gly-Gly-Arg-Gly-Asp ({mPEG2‑NHS 5 kDa}-RGADRAGGGGRGD) [mPEG2-NHS5k-HM-1] . Value?
38.64

State the recorded rate of growth inhibition for this entry: mPEG-bALD20k-Arg-Gly-Ala-Asp-Arg-Ala-Gly-Gly-Gly-Gly-Arg-Gly-Asp ({mPEG‑bALD 20 kDa}-RGADRAGGGGRGD) [mPEG-bALD20k-HM-1]
45.24

May I ask what rate of growth inhibition has been recorded for mPEG-ALD20k-Arg-Gly-Ala-Asp-Arg-Ala-Gly-Gly-Gly-Gly-Arg-Gly-Asp ({mPEG‑ALD 20 kDa}-RGADRAGGGGRGD) [mPEG-ALD20k-HM-1] ?
45.29

State the recorded rate of growth inhibition for this entry: mPEG-ALD40k-Arg-Gly-Ala-Asp-Arg-Ala-Gly-Gly-Gly-Gly-Arg-Gly-Asp ({mPEG‑ALD 40 kDa}-RGADRAGGGGRGD) [mPEG-ALD40k-HM-1]
43.22

Need rate of growth inhibition of mPEG-ALD5k-Arg-Gly-Ala-Asp-Arg-Ala-Gly-Gly-Gly-Gly-Arg-Gly-Asp ({mPEG‑ALD 5 kDa}-RGADRAGGGGRGD) [mPEG-ALD5k-HM-1] , thanks.
35.93

----------
Tested on: collagen induced arthritis (CIA) in DBA/1 mice
Assay: Collagen-induced mouse arthritis (CIA) model
Format: in vivo
Settings: 10 mg/kg subcutaneous from day 30 of modeling; CIA DBA/1 mice; maximum score 16
Where no end group is shown, it is not given here.
Answer each item with its documented Clinical score.
Lab note: jot down the number only; don't add units.

Tell me the measured Clinical score of mPEG-bALD5k-Arg-Gly-Ala-Asp-Arg-Ala-Gly-Gly-Gly-Gly-Arg-Gly-Asp ({mPEG‑bALD 5 kDa}-RGADRAGGGGRGD) [mPEG-bALD5k-HM-1] , please.
8.98

Endpoint output: Clinical score of mPEG-ALD5k-Arg-Gly-Ala-Asp-Arg-Ala-Gly-Gly-Gly-Gly-Arg-Gly-Asp ({mPEG‑ALD 5 kDa}-RGADRAGGGGRGD) [mPEG-ALD5k-HM-1] . Value?
8.93

I'd like to know its Clinical score. The substance in question is mPEG2-NHS5k-Arg-Gly-Ala-Asp-Arg-Ala-Gly-Gly-Gly-Gly-Arg-Gly-Asp ({mPEG2‑NHS 5 kDa}-RGADRAGGGGRGD) [mPEG2-NHS5k-HM-1]
9.01

What measured Clinical score goes with mPEG-SC5k-Arg-Gly-Ala-Asp-Arg-Ala-Gly-Gly-Gly-Gly-Arg-Gly-Asp ({mPEG‑SC 5 kDa}-RGADRAGGGGRGD) [mPEG-SC5k-HM-1] ?
9.10
